# studyTarget: T1, monomeric human PRLR (hPRLR.mmh; SEQ ID NO:401) (Homo sapiens, UniProt P16471)
# T1 construct: soluble monomeric (hPRLR.mmh); mmh (myc-myc-hexahistidine) (C)
# T1 sequence (P16471 with tags, fused parts or gaps): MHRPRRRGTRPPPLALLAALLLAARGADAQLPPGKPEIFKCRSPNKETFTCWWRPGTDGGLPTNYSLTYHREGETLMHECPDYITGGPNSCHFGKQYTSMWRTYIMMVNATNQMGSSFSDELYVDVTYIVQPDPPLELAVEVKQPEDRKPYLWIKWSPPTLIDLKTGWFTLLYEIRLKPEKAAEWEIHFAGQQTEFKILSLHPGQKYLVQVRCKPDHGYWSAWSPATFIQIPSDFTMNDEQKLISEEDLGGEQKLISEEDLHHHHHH
# test: Surface plasmon resonance (Biacore T200), antibody-capture format
# Format: binding
# testContext: 37° C., analyte hPRLR.mmh
Entries and their ka values follow.
Dear colleague, please return just the value in M/s, with no unit written.

Reference set, count: 3
Query: Report ka for H1H6953N: anti-PRLR antibody, human IgG1 Fc form of H1M6953N of Table 1; HCVR/LCVR SEQ ID NOs 274/282 (antibody, V domains shown) VH: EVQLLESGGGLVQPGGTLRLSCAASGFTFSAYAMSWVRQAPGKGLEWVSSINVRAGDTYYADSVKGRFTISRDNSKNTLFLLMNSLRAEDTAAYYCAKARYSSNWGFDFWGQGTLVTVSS VL: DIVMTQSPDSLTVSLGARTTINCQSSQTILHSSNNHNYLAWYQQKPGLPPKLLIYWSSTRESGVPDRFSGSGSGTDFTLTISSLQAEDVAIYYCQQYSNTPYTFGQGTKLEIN
Result: 1.1e+06

Query: Report ka for H1H6765P: fully human anti-PRLR antibody, human IgG1 Fc; HCVR/LCVR SEQ ID NOs 18/26 (antibody, V domains shown) VH: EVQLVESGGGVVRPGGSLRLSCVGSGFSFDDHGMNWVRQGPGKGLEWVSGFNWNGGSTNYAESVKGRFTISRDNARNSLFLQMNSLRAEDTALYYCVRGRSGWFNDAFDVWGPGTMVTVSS VL: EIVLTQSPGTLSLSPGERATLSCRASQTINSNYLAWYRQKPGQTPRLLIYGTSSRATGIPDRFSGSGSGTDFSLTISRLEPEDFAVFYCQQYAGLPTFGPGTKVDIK
Result: 1.25e+06

Query: Report ka for H1H6803P: fully human anti-PRLR antibody, human IgG1 Fc; HCVR/LCVR SEQ ID NOs 226/234 (antibody, V domains shown) VH: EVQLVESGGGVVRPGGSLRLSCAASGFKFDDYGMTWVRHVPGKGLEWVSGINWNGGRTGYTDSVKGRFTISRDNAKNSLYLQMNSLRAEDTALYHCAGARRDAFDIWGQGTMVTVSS VL: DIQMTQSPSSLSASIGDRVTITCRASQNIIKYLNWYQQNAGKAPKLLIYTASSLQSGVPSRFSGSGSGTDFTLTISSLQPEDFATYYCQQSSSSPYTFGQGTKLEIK
Result: 129000

We now examine a further molecule.
Query: Report ka for H1H6975N: anti-PRLR antibody, human IgG1 Fc form of H2M6975N of Table 1; HCVR/LCVR SEQ ID NOs 370/378 (antibody, V domains shown, human IgG1 Fc) VH: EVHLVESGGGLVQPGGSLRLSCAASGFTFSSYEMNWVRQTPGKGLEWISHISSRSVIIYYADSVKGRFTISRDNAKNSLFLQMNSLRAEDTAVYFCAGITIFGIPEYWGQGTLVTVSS VL: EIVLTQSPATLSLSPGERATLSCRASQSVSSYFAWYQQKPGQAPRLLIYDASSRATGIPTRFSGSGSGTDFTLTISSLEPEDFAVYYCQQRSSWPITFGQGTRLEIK
Result: 211000
